# Assay Text: Drug distribution in Sprague-Dawley rat stomach content measured at 0.5 hrs
# Assay type: ADME, tissue-based
# Test Conditions: read-out: Ct
Recorded Metric: concentration at 0.5 h (ng/g)
Write the answer as a number in ng/g, unit excluded.

Report concentration at 0.5 h for CO[C@H]1/C=C/O[C@@]2(C)Oc3c(C)c(O)c4c(c3C2=O)C2=NC3(CCN(CCn5c([N+](=O)[O-])cnc5C)CC3)NC2=C(NC(=O)/C(C)=C\C=C\[C@H](C)[C@H](O)[C@@H](C)[C@@H](O)[C@@H](C)[C@H](OC(C)=O)[C@@H]1C)C4=O please. 3.26e+06

---

# Assay Text: Drug distribution in Sprague-Dawley rat brain measured at 6 hrs
# Assay type: ADME, tissue-based
# Test Conditions: read-out: Ct
Recorded Metric: concentration at 6 h (ng/g)
Write the answer as a number in ng/g, unit excluded.

Report concentration at 6 h for CO[C@H]1/C=C/O[C@@]2(C)Oc3c(C)c(O)c4c(c3C2=O)C2=NC3(CCN(CCn5c([N+](=O)[O-])cnc5C)CC3)NC2=C(NC(=O)/C(C)=C\C=C\[C@H](C)[C@H](O)[C@@H](C)[C@@H](O)[C@@H](C)[C@H](OC(C)=O)[C@@H]1C)C4=O please. 156

---

# System: Helicobacter pylori
# Assay Text: Antibacterial activity against Helicobacter pylori ATCC 700392
# Assay type: functional
Cut-off 0.2 µg/mL on MIC: below means Yes, at or above means No.

Consider CO[C@H]1/C=C/O[C@@]2(C)Oc3c(C)c(O)c4c(c3C2=O)C2=NC3(CCN(Cc5ccc(CO[C@@H]6COc7nc([N+](=O)[O-])cn7C6)cc5)CC3)NC2=C(NC(=O)/C(C)=C\C=C\[C@H](C)[C@H](O)[C@@H](C)[C@@H](O)[C@@H](C)[C@H](OC(C)=O)[C@@H]1C)C4=O . Does its MIC lie strictly below 0.2 µg/mL? Yes

Consider CO[C@H]1/C=C/O[C@@]2(C)Oc3c(C)c(O)c4c(O)c(c(N5CCN(Cc6ccc(OCC7Cn8cc([N+](=O)[O-])nc8O7)cc6)CC5)c(O)c4c3C2=O)NC(=O)/C(C)=C\C=C\[C@H](C)[C@H](O)[C@@H](C)[C@@H](O)[C@@H](C)[C@H](OC(C)=O)[C@@H]1C (stereo partly drawn) . Does its MIC lie strictly below 0.2 µg/mL? No

Consider O=[N+]([O-])c1cn2c(n1)OC[C@@H](OCc1ccc(OC(F)(F)F)cc1)C2 . Does its MIC lie strictly below 0.2 µg/mL? No

Consider CO[C@H]1/C=C/O[C@@]2(C)Oc3c(C)c(O)c4c(O)c(c(N5CCN(CC6(C)Cn7cc([N+](=O)[O-])nc7O6)CC5)c(O)c4c3C2=O)NC(=O)/C(C)=C\C=C\[C@H](C)[C@H](O)[C@@H](C)[C@@H](O)[C@@H](C)[C@H](OC(C)=O)[C@@H]1C (stereo partly drawn) . Does its MIC lie strictly below 0.2 µg/mL? No

Consider CO[C@H]1/C=C/O[C@@]2(C)Oc3c(C)c(O)c4c(O)c(c5c(nc6ccc(CCC(=O)N7CCN(CCn8c([N+](=O)[O-])cnc8C)CC7)cn65)c4c3C2=O)NC(=O)/C(C)=C\C=C\[C@H](C)[C@H](O)[C@@H](C)[C@@H](O)[C@@H](C)[C@H](OC(C)=O)[C@@H]1C . Does its MIC lie strictly below 0.2 µg/mL? No

Consider CO[C@H]1/C=C/O[C@@]2(C)Oc3c(C)c(O)c4c(c3C2=O)C2=NC3(CCN(CC5Cn6cc([N+](=O)[O-])nc6O5)CC3)NC2=C(NC(=O)/C(C)=C\C=C\[C@H](C)[C@H](O)[C@@H](C)[C@@H](O)[C@@H](C)[C@H](OC(C)=O)[C@@H]1C)C4=O (stereo partly drawn) . Does its MIC lie strictly below 0.2 µg/mL? Yes

Consider CO[C@H]1/C=C/O[C@@]2(C)Oc3c(C)c(O)c4c(=O)c(c5oc6cc(N7CCN(c8ccc(OCC9(C)Cn%10cc([N+](=O)[O-])nc%10O9)cc8)CC7)cc(O)c6nc-5c4c3C2=O)NC(=O)/C(C)=C\C=C\[C@H](C)[C@H](O)[C@@H](C)[C@@H](O)[C@@H](C)[C@H](OC(C)=O)[C@@H]1C (stereo partly drawn) . Does its MIC lie strictly below 0.2 µg/mL? Yes

Consider CO[C@H]1/C=C/O[C@@]2(C)Oc3c(C)c(O)c4c(c3C2=O)C2=NC3(CCN(CC(C)C)CC3)NC2=C(NC(=O)/C(C)=C\C=C\[C@H](C)[C@H](O)[C@@H](C)[C@@H](O)[C@@H](C)[C@H](OC(C)=O)[C@@H]1C)C4=O . Does its MIC lie strictly below 0.2 µg/mL? Yes

Cited source for all entries: ChEMBL document CHEMBL5131497
